biological target: Human mTOR (FLAG-TOR) (Homo sapiens); test: mTOR kinase assay (DELFIA format, purified enzyme); format: biochemical; conditions: read-out: IC50 mTOR
Sequence (P42345 1360-2549 limits assumed): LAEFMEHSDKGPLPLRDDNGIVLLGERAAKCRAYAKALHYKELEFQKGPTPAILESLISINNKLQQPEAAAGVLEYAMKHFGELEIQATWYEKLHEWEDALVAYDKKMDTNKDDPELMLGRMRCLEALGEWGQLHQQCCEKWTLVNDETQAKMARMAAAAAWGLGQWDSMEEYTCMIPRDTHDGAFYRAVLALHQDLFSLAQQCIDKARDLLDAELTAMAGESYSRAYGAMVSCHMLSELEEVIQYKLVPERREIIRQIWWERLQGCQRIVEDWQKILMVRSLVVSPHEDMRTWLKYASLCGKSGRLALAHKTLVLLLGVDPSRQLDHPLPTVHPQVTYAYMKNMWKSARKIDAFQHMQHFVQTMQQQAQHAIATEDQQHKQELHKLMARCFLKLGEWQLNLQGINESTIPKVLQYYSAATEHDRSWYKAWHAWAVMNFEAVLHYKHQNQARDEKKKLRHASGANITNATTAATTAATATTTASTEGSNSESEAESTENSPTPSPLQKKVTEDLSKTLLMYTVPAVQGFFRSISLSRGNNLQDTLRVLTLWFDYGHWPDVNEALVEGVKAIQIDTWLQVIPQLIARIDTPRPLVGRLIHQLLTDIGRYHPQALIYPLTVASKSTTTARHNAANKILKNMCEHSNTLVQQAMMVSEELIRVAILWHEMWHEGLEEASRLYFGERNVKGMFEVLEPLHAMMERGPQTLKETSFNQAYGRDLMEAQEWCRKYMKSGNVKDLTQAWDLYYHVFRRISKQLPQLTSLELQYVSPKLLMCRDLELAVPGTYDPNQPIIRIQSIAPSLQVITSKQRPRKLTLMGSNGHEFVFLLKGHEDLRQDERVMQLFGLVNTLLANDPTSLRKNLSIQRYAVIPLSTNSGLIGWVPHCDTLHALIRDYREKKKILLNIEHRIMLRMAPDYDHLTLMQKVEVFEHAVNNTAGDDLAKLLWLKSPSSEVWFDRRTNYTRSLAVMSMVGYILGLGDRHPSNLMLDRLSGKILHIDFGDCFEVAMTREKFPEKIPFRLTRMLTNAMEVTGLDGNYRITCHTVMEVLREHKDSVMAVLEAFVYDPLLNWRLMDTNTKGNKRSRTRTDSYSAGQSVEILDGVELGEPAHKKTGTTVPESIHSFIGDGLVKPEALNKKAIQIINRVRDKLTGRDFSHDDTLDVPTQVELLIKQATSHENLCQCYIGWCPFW
pIC50: −log10 of the molar value.
Below, each entry is listed alongside its reported pIC50.

{"columns": ["molecule", "pIC50"],
 "data": [
  ["CC(C)c1nc(-c2ccc(NC(=O)Nc3ccc(-c4cnc(N(C)C)nc4)cc3)cc2)nc(N2CCOCC2)n1", 7.49],
  ["CCc1nc(-c2ccc(NC(=O)Nc3ccc(C(=O)NC4CCN(C)CC4)cc3)cc2)nc(N2CCOCC2)n1", 7.89],
  ["C[C@@H]1COCCN1c1nc(-c2ccc(NC(=O)Nc3ccc(C(=O)N4CCN(C)CC4)cc3)cc2)nc(N2CCOC[C@@H]2C)n1", 9.00],
  ["C[C@H]1COCCN1c1nc(-c2ccc(NC(=O)Nc3ccc(C(=O)N(C)CCN(C)C)cc3)cc2)nc(N2C3CCC2COC3)n1", 6.58],
  ["CN1CCN(c2nc(-c3ccc(NC(=O)Nc4cccnc4)cc3)nc(N3CC4CCC(C3)O4)n2)C1", 8.92],
  ["O=C(Nc1ccc(C(=O)NCCN2CCCCC2)cc1)Nc1ccc(-c2nc(C3CCOCC3)nc(N3CCOCC3)n2)cc1", 9.77],
  ["O=C(Nc1ccc(C(=O)NCCN2CCCCC2)cc1)Nc1ccc(-c2nc(N3CCOCC3)nc(N3C4COCC3COC4)n2)cc1", 9.64],
  ["CCN1CCN(c2ccc(NC(=O)Nc3ccc(-c4nc(C5CCOCC5)nc(N5CCOC[C@H]5C)n4)cc3)cc2)CC1", 8.85],
  ["CNC(=O)Nc1ccc(-c2nc(-c3ccc(NC(=O)Nc4cccc(C(N)=O)c4)cc3)nc(N3CCOCC3)n2)cc1", 9.00],
  ["O=C(Nc1ccc(-c2nc(NC3CNC3)nc(N3CCOCC3)n2)cc1)Nc1cccnc1", 7.44],
  ["COC(=O)c1cccc(NC(=O)Nc2ccc(-c3nc(-c4ccccc4)nc(N4CCOCC4)n3)cc2)c1", 6.44],
  ["O=C(Nc1ccc(C(=O)NCc2ccccn2)cc1)Nc1ccc(-c2nc(N3CCOCC3)nc(N3CCOCC3)n2)cc1", 9.00],
  ["CC(C)Nc1nc(-c2ccc(NC(=O)NCCO)cc2)nc(N2CC3CCC(C2)O3)n1", 8.54],
  ["CC(C)Nc1nc(-c2ccc(NC(=O)Nc3cccnc3)cc2)nc(N2CC3CCC(C2)O3)n1", 9.10]
]}

Data origin: patent US20090304692A1
